# CC50 listing for each entry below
# Test system: SW48 human colorectal cancer cells
# procedure summary: Calculated free drug potency in SW48 cell assay, corrected with media free fraction (Example C)
# Type: cell-based
# measurement context: Homo sapiens, SW48, SW48 pCC50 corrected with measured free fraction in cell assay media
Your answer should be a plain number; it is taken to be in nM.

{"compound": "CN1CCOc2ccc(S(=O)(=O)N(C)c3ccc([C@H]4CCC[C@@H](C(=O)Nc5ccc(C(F)(F)F)cc5F)[C@@H]4C(=O)O)cc3)cc21", "assayed target": "SW48 human colorectal cancer cells", "measurement": 5.62}
{"compound": "CN(c1ccc([C@H]2CCC[C@@H](C(=O)Nc3ccc(C(F)(F)F)cc3F)[C@@H]2C(=O)O)cc1)S(=O)(=O)c1ccc2c(c1)nc(Cl)n2C", "assayed target": "SW48 human colorectal cancer cells", "measurement": 26.3}
{"compound": "CCO[C@@H]1C[C@H](c2ccc(N(C)S(=O)(=O)c3ccc4c(c3)nc(Cl)n4C)cc2)[C@@H](C(=O)O)[C@H](C(=O)Nc2ccc(C(F)(F)F)cc2F)C1 (relative stereo)", "assayed target": "SW48 human colorectal cancer cells", "measurement": 31.6}

Given the entry `Cc1nc2cc(S(=O)(=O)N(C)c3ccc([C@H]4CCC[C@@H](C(=O)Nc5ccc(C(F)(F)F)cc5F)[C@@H]4C(=O)O)cc3)cc(Cl)c2n1C` , what CC50 was observed with SW48 human colorectal cancer cells?
9.12

Follow-up entry: CN(c1ccc([C@H]2CCC[C@@H](C(=O)Nc3ccc(C(F)(F)F)cc3F)[C@@H]2C(=O)O)cc1)S(=O)(=O)c1cccc(C2CNC(=O)C2)c1 (some centres unmarked)
56.2
